Hello, the source for this data is patent US8133978, in case you need it.

- target or system: T1, Human interleukin-18 (recombinant human IL-18) (human, UniProt Q14116 37-193)
- T1 construct: also called hIL-18
- T1 sequence: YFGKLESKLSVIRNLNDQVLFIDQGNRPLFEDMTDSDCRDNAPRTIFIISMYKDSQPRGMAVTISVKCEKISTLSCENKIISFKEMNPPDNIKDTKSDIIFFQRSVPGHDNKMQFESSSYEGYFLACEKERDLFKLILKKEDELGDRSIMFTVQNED
- assay info: ELISA, antibody on plate, human IL-18 captured, detected by 16D10; 37 C, in serum
measured attribute: EC50 (µg/mL)
Express it in µg/mL; write the number only.

These recorded examples may help you get a feel for the data.
binder	EC50 (µg/mL)
H1L1 humanised anti-IL-18 antibody (antibody, human IgG1, kappa, V domains shown, Human IgG1 / kappa) VH: QVQLVQSGAEVKKPGASVKVSCKVSGEISTGYYFHWVRQAPGKGLEWMGRIDPEDDSTKYAERFKDRVTMTEDTSTDTAYMELSSLRSEDTAVYYCTTWRIYRDSSGRPFYVMDAWGQGTLVTVSS VL: DIQMTQSPSSVSASVGDRVTITCLASEDIYTYLTWYQQKPGKAPKLLIYGANKLQDGVPSRFSGSGSGTDFTLTISSLQPEDFATYYCLQGSKFPLTFGQGTKLEIKR	0.0121
H1L2 humanised anti-IL-18 antibody (antibody, human IgG1, kappa, V domains shown, Human IgG1 / kappa) VH: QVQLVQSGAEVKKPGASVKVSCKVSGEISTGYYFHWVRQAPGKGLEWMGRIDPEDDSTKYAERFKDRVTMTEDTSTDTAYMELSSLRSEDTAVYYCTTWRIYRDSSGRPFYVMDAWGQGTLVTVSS VL: DIQMTQSPSSVSASVGDRVTITCLASEDIYTYLTWYQQKPGKAPKLLIYGANKLQDGVPSRFSGSGSGTDYTLTISSLQPEDFATYYCLQGSKFPLTFGQGTKLEIKR	0.00979
2C10 rat-human chimera (chimaeric antibody 2C10c) (antibody, V domains shown, Rat 2C10 V regions joined to human IgG1 and kappa C regions; also called Chimera 2C10; 2C10 Chimera) VH: EVQLQQSGAELVRPGTSVKLSCKVSGEISTGYYFHFVRRRPGQGLEWIGRIDPEDDSTKYAERFKDRATLTAQTSSNTAYLNLSSLTSEDTATYFCTTWRIYRDSSGRPFYVMDAWGQGTLVTVSS VL: DIQMTQSPASLSASLGETVSIECLASEDIYTYLTWYQQKPGKSPQLLIYGANKLQDGVPSRFSGSGSGTQYSLKISGIQPEDEGDYFCLQGSKFPLTFGSGTKLEIKR	0.0101

Could you now look at the following binder, please?
Prompt: Give a short answer stating reported EC50 for H1L3 humanised anti-IL-18 antibody (antibody, human IgG1, kappa, V domains shown, Human IgG1 / kappa) VH: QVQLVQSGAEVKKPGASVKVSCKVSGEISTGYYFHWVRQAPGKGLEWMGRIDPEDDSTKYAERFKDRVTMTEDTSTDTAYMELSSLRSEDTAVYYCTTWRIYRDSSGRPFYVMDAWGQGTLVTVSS VL: DIQMTQSPSSVSASVGDRVTITCLASEDIYTYLTWYQQKPGKAPQLLIYGANKLQDGVPSRFSGSGSGTDYTLTISSLQPEDEGDYYCLQGSKFPLTFGQGTKLEIKR .
Response: 0.0114
